Values were extracted from paper PMC7594721.

Target: TAK1 (Homo sapiens)
Construct: purchased Invitrogen (Thermo Fisher Scientific)
Sequence (O43318 with tags, fused parts or gaps limits assumed): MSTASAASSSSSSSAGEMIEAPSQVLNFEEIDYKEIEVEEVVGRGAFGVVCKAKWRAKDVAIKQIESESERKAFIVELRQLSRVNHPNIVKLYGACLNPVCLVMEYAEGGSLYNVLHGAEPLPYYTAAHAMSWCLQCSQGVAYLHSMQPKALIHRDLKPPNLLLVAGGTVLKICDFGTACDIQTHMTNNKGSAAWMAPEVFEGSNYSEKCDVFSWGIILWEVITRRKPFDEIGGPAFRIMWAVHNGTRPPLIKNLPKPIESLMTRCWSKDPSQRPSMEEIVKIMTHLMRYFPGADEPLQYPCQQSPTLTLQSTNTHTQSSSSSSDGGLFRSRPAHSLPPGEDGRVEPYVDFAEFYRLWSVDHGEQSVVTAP
Test: TAK1 LanthaScreen Eu Kinase Binding Assay (Invitrogen; Table 1 calls it TAK1 enzymatic assay)
Settings: Table 1 SAR discussion
observable: TAK1 potency, SAR result in words

COc1ccc(/C=C(\C#N)C(=O)N[C@@H]2CCN(c3c(Cl)cnc4[nH]c(-c5ccc(N6CCN(C)CC6)cc5)nc34)C2)nc1 [Compound 13k] ... increased
CN1CCN(c2ccc(-c3nc4c(N5CC[C@@H](NC(=O)/C(C#N)=C/c6cccc(Cl)n6)C5)c(Cl)cnc4[nH]3)cc2)CC1 [Compound 13g] ... increased

* * *

Measured pIC50 (TAK1 (Homo sapiens, UniProt O43318))
pIC50: −log10 of the molar value.
observable: pIC50

a = Cc1cccc(/C=C(\C#N)C(=O)N[C@@H]2CCN(c3c(Cl)cnc4[nH]c(-c5ccc(N6CCN(C)CC6)cc5)nc34)C2)n1 [Compound 13h]
b = CN1CCN(c2ccc(-c3nc4c(N5CC[C@@H](NC(=O)/C(C#N)=C/c6ccccc6)C5)c(Cl)cnc4[nH]3)cc2)CC1 [Compound 13a]
Input line: Param metric = pIC50; output whichever of a , b has the minimum value. Your choice should be expressed through its label.
Output line: b
(b: 6.41, a: 7.57)
